system: HEK293 cells; test: alamarBlue cytotoxicity assessment in HEK293 cells; format: cell-based, human; conditions: HEK293, alamarBlue, 16 h; concentration not given
Listed here are compounds together with their documented Tox [% of ctrl.].

// below: answered compounds
compound	Tox [% of ctrl.]
COc1ccc(/C=C2\CC(NC(=O)CCN(C)C)C/C(=C\c3ccc(OC)c(OC)c3)C2=O)cc1OC (stereo not shown)	97% of ctrl.
COc1ccc(/C=C2\CN(C(=O)C3CCCN3)C/C(=C\c3ccc(OC)c(OC)c3)C2=O)cc1OC (stereo not shown)	94% of ctrl.
COc1ccc(/C=C2\CN(C(=S)NCCN3CCOCC3)C/C(=C\c3ccc(OC)c(OC)c3)C2=O)cc1OC	84% of ctrl.

Please look at the following compound next.
Asked: Can you look up Tox [% of ctrl.] on HEK293 cells for COc1ccc(/C=C2\CN(C(=O)c3ccccn3)C/C(=C\c3ccc(OC)c(OC)c3)C2=O)cc1OC ?
Given back: 83% of ctrl.
